system: HEK293; assay: Inhibition of proteasome beta2 in HEK cell lysates at 1 to 100 uM after 1 hr by MV151 competitive SDS-PAGE analysis; details: Homo sapiens
Calls of active or inactive are those of the source. The calls are words filed in the database; no cut-off is given here.
Log the outcome using a class from TRUE (active), FALSE (inactive)

Illustrative cases are given below, each with its answer.
[
  {
    "Molecular String": "CC[C@H](C)[C@H](NC(C)=O)C(=O)N[C@H](C(=O)N[C@H](C(=O)N[C@@H](CC(C)C)CS(=O)(=O)F)[C@@H](C)O)[C@@H](C)CC",
    "Subject Of Test": "HEK293",
    "Label Class": "TRUE"
  },
  {
    "Molecular String": "CC(C)C[C@@H](CS(=O)(=O)F)NC(=O)[C@@H](N)Cc1ccccc1",
    "Subject Of Test": "HEK293",
    "Label Class": "FALSE"
  },
  {
    "Molecular String": "CC[C@H](C)[C@H](NC(C)=O)C(=O)N[C@H](C(=O)N[C@H](C(=O)N[C@@H](CC(C)C)CS(=O)(=O)F)[C@@H](C)OCc1ccccc1)[C@@H](C)CC",
    "Subject Of Test": "HEK293",
    "Label Class": "TRUE"
  },
  {
    "Molecular String": "CC[C@H](C)[C@H](N)C(=O)N[C@H](C(=O)N[C@H](C(=O)N[C@@H](CC(C)C)CS(=O)(=O)F)[C@@H](C)OCc1ccccc1)[C@@H](C)CC",
    "Subject Of Test": "HEK293",
    "Label Class": "TRUE"
  },
  {
    "Molecular String": "CC[C@H](C)[C@H](NC(=O)OC(C)(C)C)C(=O)N[C@H](C(=O)N[C@H](C(=O)N[C@@H](CC(C)C)CS(=O)(=O)F)[C@@H](C)OCc1ccccc1)[C@@H](C)CC",
    "Subject Of Test": "HEK293",
    "Label Class": "TRUE"
  },
  {
    "Molecular String": "CC(C)C[C@@H](CS(=O)(=O)F)NC(=O)[C@H](CC(C)C)NC(=O)[C@@H](N)CC(C)C",
    "Subject Of Test": "HEK293",
    "Label Class": "TRUE"
  },
  {
    "Molecular String": "CC(=O)N[C@@H](CC(C)C)C(=O)N[C@@H](CC(C)C)C(=O)N[C@@H](CC(C)C)C(=O)N[C@@H](CC(C)C)CS(=O)(=O)F",
    "Subject Of Test": "HEK293",
    "Label Class": "TRUE"
  },
  {
    "Molecular String": "CC[C@H](C)[C@H](N)C(=O)N[C@H](C(=O)N[C@@H](CC(C)C)CS(=O)(=O)F)[C@@H](C)OCc1ccccc1",
    "Subject Of Test": "HEK293",
    "Label Class": "TRUE"
  },
  {
    "Molecular String": "CC(C)C[C@@H](CS(=O)(=O)F)NC(=O)[C@H](CC(C)C)NC(=O)[C@H](CC(C)C)NC(=O)OCc1ccccc1",
    "Subject Of Test": "HEK293",
    "Label Class": "TRUE"
  },
  {
    "Molecular String": "CC(C)C[C@@H](CS(=O)(=O)F)NC(=O)[C@H](CC(C)C)NC(=O)[C@H](CC(C)C)NC(=O)[C@@H](N)CC(C)C",
    "Subject Of Test": "HEK293",
    "Label Class": "TRUE"
  }
]

Let's switch to this compound now.
Test call for this compound, please: CC[C@H](C)[C@H](N)C(=O)N[C@H](C(=O)N[C@@H](CC(C)C)CS(=O)(=O)F)[C@@H](C)O
TRUE
